# System under test: T1, human GFRAL expressed on cells (human, UniProt Q6UXV0 20-394)
# T1 sequence: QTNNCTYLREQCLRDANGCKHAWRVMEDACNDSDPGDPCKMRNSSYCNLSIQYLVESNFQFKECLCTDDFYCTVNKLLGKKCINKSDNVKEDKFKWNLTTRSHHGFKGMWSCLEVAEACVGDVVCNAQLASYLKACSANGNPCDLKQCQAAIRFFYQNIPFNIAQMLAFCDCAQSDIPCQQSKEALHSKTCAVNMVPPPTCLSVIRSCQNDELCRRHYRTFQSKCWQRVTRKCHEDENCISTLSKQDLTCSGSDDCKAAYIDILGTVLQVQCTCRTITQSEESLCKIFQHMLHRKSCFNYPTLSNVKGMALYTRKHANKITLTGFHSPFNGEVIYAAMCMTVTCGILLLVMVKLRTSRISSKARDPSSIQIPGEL
# Test method notes: cell-based or functional assay
Value type: IC50, ELK1-luciferase reporter (hGFRAL/hRET) (nM)
# value in nM; strip the unit string

Qu. Data request, read-out IC50, ELK1-luciferase reporter (hGFRAL/hRET), for antibody designated 22N5 (antibody, V domains shown, mouse hybridoma monoclonal) VH: QNQLVQSGPELKKPGEIVKISCKTSGYTFTDYSMHWVKKTPGKGFKWMGWINTETGEPTYADDFKGRFAFSLETSANTAHLQITNLKNEDTATYFCVKGTLNYWGQGTTLTVSS VL: DIKMTQSPSSMYASLGERVTITCKASQDIKSYLNWFQQKPGKSPKTLIYRTKRLVDGVPSRFSGSGSGQDYSLTVSSLEYDDVGIYYCLQYVEFPLTFGDGTKLELK
Ans. 7.74
